# Target system: KRAS G12D (Homo sapiens (Human), UniProt P01116+P62937, G12D)
# Sequence (P01116-2 other isoform, or with tags, fused parts or gaps G12D): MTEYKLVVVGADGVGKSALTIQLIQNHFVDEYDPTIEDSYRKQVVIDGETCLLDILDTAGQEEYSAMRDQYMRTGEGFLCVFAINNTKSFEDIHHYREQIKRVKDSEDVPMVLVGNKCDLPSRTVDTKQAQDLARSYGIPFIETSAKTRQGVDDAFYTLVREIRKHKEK
# Sequence (P62937 whole entry): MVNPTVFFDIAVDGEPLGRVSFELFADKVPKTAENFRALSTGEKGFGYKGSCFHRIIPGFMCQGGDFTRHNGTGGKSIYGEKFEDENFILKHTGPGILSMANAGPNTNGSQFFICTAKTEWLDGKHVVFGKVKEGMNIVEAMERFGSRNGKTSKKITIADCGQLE
# Protocol: Ras-Raf (BRAF RBD) disruption / FRET / MOA assay, KRAS G12D
# Type: biochemical
# Applied conditions: Ras-Raf disruption/FRET/MOA assay; class symbols; read-out: KRAS G12D FRET data IC50
# Description: The purpose of this biochemical assay is to measure the ability of test compounds to facilitate ternary complex formation between a nucleotide-loaded Ras isoform and cyclophilin A; the resulting ternary complex disrupts binding to a BRAF^RBD construct, inhibiting Ras signaling through a RAF effector. Compound is present in plate wells as a 10-point 3-fold dilution series starting at a final concentration of 30 μM. […]
Give measured IC50 for each item. Keep answers brief.

As a guide, the following entries are already answered.
| Compound | IC50 |
| --- | --- |
| C=CC(=O)N1CCOC2(C1)CN(C(=O)N(C)[C@H](C(=O)N[C@H]1Cc3cccc(c3)-c3ccc4c(c3)c(c(-c3cccnc3[C@H](C)OC)n4CC(F)(F)F)CC(C)(C)COC(=O)[C@@H]3CCCN(N3)C1=O)C(C)C)C2 (atropisomer, axis not shown) | 1 to 10 µM |
| C=CC(=O)N1CC(OC[C@H](C(=O)N[C@H]2Cc3cccc(c3)-c3ccc4c(c3)c(c(-c3cccnc3[C@H](C)OC)n4CC(F)(F)F)CC(C)(C)COC(=O)[C@@H]3CCCN(N3)C2=O)C(C)C)C1 (atropisomer, axis not shown) | > 10 µM |
| CCn1c(-c2cccnc2[C@H](C)OC)c2c3cc(ccc31)-c1cccc(c1)C[C@H](NC(=O)[C@H](C(C)C)N(C)C(=O)[C@H]1CCN(C(=O)/C=C/CN3CC(OC)C3)C1)C(=O)N1CCC[C@H](N1)C(=O)OCC(C)(C)C2 (atropisomer, axis not shown) [Example A203] | > 10 µM |
| C=CC(=O)N1CC[C@H](C(=O)N(C)[C@H](C(=O)N[C@H]2Cc3cc(O)cc(c3)-c3ccc4c(c3)c(c(-c3ncn(C)c3[C@H](C)OC)n4CC)CC(C)(C)COC(=O)[C@@H]3CCCN(N3)C2=O)C(C)C)C1 | > 10 µM |
| C=CC(=O)N(C)C[C@H]1CCN1C(=O)N(C)[C@H](C(=O)N[C@H]1Cc2nc(cs2)-c2ccc3c(c2)c(c(-c2cccnc2[C@H](C)OC)n3CC)CC(C)(C)COC(=O)[C@@H]2CCCN(N2)C1=O)C(C)C (atropisomer, axis not shown) | 1 to 10 µM |

In: Report IC50 for C=CC(=O)N1CCN(C(=O)N(C)[C@H](C(=O)N[C@H]2Cc3nc(cs3)-c3ccc4c(c3)c(c(-c3cccnc3[C@H](C)OC)n4CC)CC(C)(C)COC(=O)[C@@H]3CCCN(N3)C2=O)C(C)C)C[C@H]1C (atropisomer, axis not shown)
Out: 0.1 to 1 µM

----------
What pIC50 was measured for each of the following?
# Target system: K-Ras G12C (Homo sapiens (Human), UniProt P01116+P62937, G12C)
# Sequence (P01116-2 other isoform, or with tags, fused parts or gaps G12C, one chain of several): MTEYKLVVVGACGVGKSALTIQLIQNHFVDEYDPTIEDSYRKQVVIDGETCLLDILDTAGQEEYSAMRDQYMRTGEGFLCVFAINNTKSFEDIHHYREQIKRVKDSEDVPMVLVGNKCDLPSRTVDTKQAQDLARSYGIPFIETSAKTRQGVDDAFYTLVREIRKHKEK
# Protocol: Ras-Raf (BRAF RBD) disruption / FRET / MOA assay, KRAS G12C
# Format: biochemical
# Applied conditions: KRAS G12C; Ras-Raf disruption/FRET/MOA assay; read-out: IC50* KRAS G12C FRET data
pIC50: −log10 of the molar value.

Below, each entry is followed by its recorded pIC50 result.
| Compound | Recorded result |
| --- | --- |
| C=CC(=O)N1CC[C@H](C(=O)N(C)[C@H](C(=O)N[C@H]2Cc3cc(O)cc(c3)-c3ccc4c(c3)c(c(-c3ccc(COC)cc3CN(C)C)n4CC)CC(C)(C)COC(=O)[C@@H]3CCCN(N3)C2=O)C(C)C)C1 [Example A127] | 7.00 to 8.00 |
| C=CC(=O)N1CCC2(CC1)CCN(C(=O)N(C)[C@H](C(=O)N[C@H]1Cc3nc(cs3)-c3ccc4c(c3)c(c(-c3cccnc3[C@H](C)OC)n4CC)CC(C)(C)COC(=O)[C@@H]3CCCN(N3)C1=O)C(C)C)CC2 (atropisomer, axis not shown) [Example A697] | 7.00 to 8.00 |
| C=CC(=O)N1CCOC2(CCN(C(=O)N(C)[C@H](C(=O)N[C@H]3Cc4cc(C(F)F)cc(n4)-c4ccc5c(c4)c(c(-c4cccnc4[C@H](C)OC)n5CC(F)(F)F)CC(C)(C)COC(=O)[C@@H]4CCCN(N4)C3=O)C(C)C)CC2)C1 (atropisomer, axis not shown) [Example A541] | 6.00 to 7.00 |
| C=CC(=O)N1CC[C@H](C(=O)N(C)[C@H](C(=O)N[C@H]2CC3=NC=C(O3)c3ccc4c(c3)c(c(-c3cccnc3[C@H](C)OC)n4CC)CC(C)(C)COC(=O)[C@@H]3CCCN(N3)C2=O)C(C)C)C1 (atropisomer, axis not shown) [Example A278] | 6.00 to 7.00 |

Consider the additional compound presented here.
In: Give reported pIC50 for C=CC(=O)N1CCN(C(=O)N(C)[C@H](C(=O)N[C@H]2Cc3nc(cs3)-c3ccc4c(c3)c(c(-c3cccnc3[C@H](C)OC)n4CC)CC(C)(C)COC(=O)[C@@H]3CCCN(N3)C2=O)C(C)C)[C@@H]2C[C@@H]21 (atropisomer, axis not shown) [Example A736] (K-Ras G12C (Homo sapiens (Human), UniProt P01116+P62937, G12C))
Out: 7.00 to 8.00

----------
# Target system: KRAS G12V (Homo sapiens (Human), UniProt P01116+P62937, G12V)
# Sequence (P01116-2 other isoform, or with tags, fused parts or gaps G12V, one chain of several): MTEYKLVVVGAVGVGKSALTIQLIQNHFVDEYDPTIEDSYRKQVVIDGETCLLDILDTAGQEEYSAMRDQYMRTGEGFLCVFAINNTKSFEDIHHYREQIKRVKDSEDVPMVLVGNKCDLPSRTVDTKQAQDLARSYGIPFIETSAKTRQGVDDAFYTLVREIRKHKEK
# Protocol: Ras-Raf (BRAF RBD) disruption / FRET / MOA assay, KRAS G12V
# Type: biochemical
# Applied conditions: read-out: IC50* KRAS G12V FRET data
Property: IC50

Below: 4 compounds and their reported IC50.
| Compound | IC50 |
| --- | --- |
| CCn1c(-c2cccnc2[C@H](C)OC)c2c3cc(ccc31)-c1csc(n1)C[C@H](NC(=O)CCOC1CN(C(=O)C#CC(C)(C)N(C)C)C1)C(=O)N1CCC[C@H](N1)C(=O)OCC(C)(C)C2 (atropisomer, axis not shown) | 1000 to 10000 nM |
| C=CC(=O)N1CCC[C@@H]2CN(C(=O)N(C)[C@H](C(=O)N[C@H]3Cc4nc(cs4)-c4ccc5c(c4)c(c(-c4cccnc4[C@H](C)OC)n5CC)CC(C)(C)COC(=O)[C@@H]4CCCN(N4)C3=O)C(C)C)C[C@@H]21 (atropisomer, axis not shown) | 1000 to 10000 nM |
| C=CC(=O)N(C)CCN1CCN(C(=O)N(C)[C@H](C(=O)N[C@H]2Cc3cccc(c3)-c3ccc4c(c3)c(c(-c3cccnc3[C@H](C)OC)n4CC)CC(C)(C)COC(=O)[C@@H]3CCCN(N3)C2=O)C(C)C)C[C@H]1C (atropisomer, axis not shown) | 1000 to 10000 nM |
| CC#CC(=O)N1CC[C@@]2(CCN([C@H](C(=O)N[C@H]3Cc4cccc(c4)-c4ccc5c(c4)c(c(-c4cccnc4[C@H](C)OC)n5CC)CC(C)(C)COC(=O)[C@@H]4CCCN(N4)C3=O)C(C)C)C2=O)C1 (atropisomer, axis not shown) | 1000 to 10000 nM |

Pending compound:
In: State its IC50: C=CC(=O)N1C2CC1CN(C(=O)N(C)[C@H](C(=O)N[C@H]1Cc3nc(cs3)-c3ccc4c(c3)c(c(-c3cccnc3[C@H](C)OC)n4CC)CC(C)(C)COC(=O)[C@@H]3CCCN(N3)C1=O)C(C)C)C2
Out: 100 to 1000 nM

----------
# Target system: KRAS G12S (Homo sapiens (Human), UniProt P01116+P62937, G12S)
# Sequence (P01116-2 other isoform, or with tags, fused parts or gaps G12S, one chain of several): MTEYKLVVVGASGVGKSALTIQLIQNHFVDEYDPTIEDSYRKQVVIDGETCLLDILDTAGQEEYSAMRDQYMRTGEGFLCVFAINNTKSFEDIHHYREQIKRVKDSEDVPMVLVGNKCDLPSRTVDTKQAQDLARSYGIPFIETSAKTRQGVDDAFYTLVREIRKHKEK
# Protocol: Ras-Raf (BRAF RBD) disruption / FRET / MOA assay, KRAS G12S
# Assay type: biochemical
# Applied conditions: Ras-Raf disruption/FRET/MOA assay; class symbols; read-out: KRAS G12S FRET data IC50
pIC50: −log10 of the molar value.
Property: pIC50

| Compound | Target system | Recorded result |
| --- | --- | --- |
| CCn1c(-c2cccnc2[C@H](C)OC)c2c3cc(ccc31)N1CCO[C@@](C)(C[C@H](NC(=O)[C@H](C(C)C)N(C)C(=O)C3(F)CCN(C(=O)C#CC(C)(C)N(C)C)CC3)C(=O)N3CCC[C@H](N3)C(=O)OCC(C)(C)C2)C1 | KRAS G12S (Homo sapiens (Human), UniProt P01116+P62937, G12S) | 5.00 to 6.00 |
| C=CC(=O)N1CC2(C1)CN(C(=O)N(C)[C@H](C(=O)N[C@H]1Cc3nc(cs3)-c3ccc4c(c3)c(c(-c3cccnc3[C@H](C)OC)n4CC)CC(C)(C)COC(=O)[C@@H]3CCCN(N3)C1=O)C(C)C)CCO2 (atropisomer, axis not shown) | KRAS G12S (Homo sapiens (Human), UniProt P01116+P62937, G12S) | 6.00 to 7.00 |
| C=CC(=O)N1CC2(C1)OCCCN2C(=O)N(C)[C@H](C(=O)N[C@H]1Cc2nc(cs2)-c2ccc3c(c2)c(c(-c2cccnc2[C@H](C)OC)n3CC)CC(C)(C)COC(=O)[C@@H]2CCCN(N2)C1=O)C(C)C (atropisomer, axis not shown) | KRAS G12S (Homo sapiens (Human), UniProt P01116+P62937, G12S) | < 5.00 |
| CC#CC(=O)N1CC[C@@H](C(=O)N(C)[C@H](C(=O)N[C@H]2Cc3cccc(c3)-c3ccc4c(c3)c(c(-c3cccnc3[C@H](C)OC)n4CC)CC(C)(C)COC(=O)[C@@H]3CCCN(N3)C2=O)C(C)C)C1 (atropisomer, axis not shown) | KRAS G12S (Homo sapiens (Human), UniProt P01116+P62937, G12S) | 5.00 to 6.00 |
| C=CC(=O)N1CC[C@H](C(=O)N(C)[C@H](C(=O)N[C@H]2Cc3nc(n(C)n3)-c3ccc4c(c3)c(c(-c3cccnc3[C@H](C)OC)n4CC)CC(C)(C)COC(=O)[C@@H]3CCCN(N3)C2=O)C(C)C)C1 (atropisomer, axis not shown) | KRAS G12S (Homo sapiens (Human), UniProt P01116+P62937, G12S) | 5.00 to 6.00 |

Take each entry in turn and give its pIC50.
1. C=CC(=O)N1C[C@@H]2CN(C(=O)N(C)[C@H](C(=O)N[C@H]3Cc4nc(cs4)-c4ccc5c(c4)c(c(-c4cccnc4[C@H](C)OC)n5CC)CC(C)(C)COC(=O)[C@@H]4CCCN(N4)C3=O)C(C)C)C[C@@H]2C1 (atropisomer, axis not shown)
2. C=CC(=O)N1CC[C@H](C(=O)N(C)[C@H](C(=O)N[C@H]2Cc3cc(O)cc(c3)-c3ccc4c(c3)c(c(-c3cncc5c3[C@@H](OC)CC5)n4CC)CC(C)(C)COC(=O)[C@@H]3CCCN(N3)C2=O)C(C)C)C1
3. C=CC(=O)N1CC[C@@H]2[C@H](C1)CN2C(=O)N(C)[C@H](C(=O)N[C@H]1Cc2nc(cs2)-c2ccc3c(c2)c(c(-c2cccnc2[C@H](C)OC)n3CC)CC(C)(C)COC(=O)[C@@H]2CCCN(N2)C1=O)C(C)C (atropisomer, axis not shown)

Out:
1: 7.00 to 8.00; 2: 7.00 to 8.00; 3: 5.00 to 6.00
